molecular target: MMP13 (active MMP13, or pro-MMP-13 activated with APMA) (UniProt P45452 20-471, limits assumed); test: cell-based or functional assay
assay.readout: MMP13 IC50 (nM)
Numbers only; they are read as nM.

binder: wild-type TIMP-3 (native human tissue inhibitor of metalloproteinase 3) (other) CTCSPSHPQDAFCNSDIVIRAKVVGKKLVKEGPFGTLVYTIKQMKMYRGFTKMPHVQYIHTEASESLCGLKLEVNKYQYLLTGRVYDGKMYTGLCNFVERWDQLTLSQRKGLNYRYHLGCNCKIKSCYYLPCFVTSKNECLWTDMLSNFGYPGYQSKHYACIRQKGGYCSWYRGWAPPDKSIINATDP
measurement.unit: nM
MMP13 IC50: 0.9
//
binder: TIMP-3 mutein T63N, K65T (other) CTCSPSHPQDAFCNSDIVIRAKVVGKKLVKEGPFGTLVYNITQMKMYRGFTKMPHVQYIHTEASESLCGLKLEVNKYQYLLTGRVYDGKMYTGLCNFVERWDQLTLSQRKGLNYRYHLGCNCKIKSCYYLPCFVTSKNECLWTDMLSNFGYPGYQSKHYACIRQKGGYCSWYRGWAPPDKSIINATDP
measurement.unit: nM
MMP13 IC50: 2.2
//
binder: TIMP-3 mutein P56N, G58T (other) CTCSPSHPQDAFCNSDIVIRAKVVGKKLVKEGNFTTLVYTIKQMKMYRGFTKMPHVQYIHTEASESLCGLKLEVNKYQYLLTGRVYDGKMYTGLCNFVERWDQLTLSQRKGLNYRYHLGCNCKIKSCYYLPCFVTSKNECLWTDMLSNFGYPGYQSKHYACIRQKGGYCSWYRGWAPPDKSIINATDP
measurement.unit: nM
MMP13 IC50: 3.1

Could you now consider this next binder?
Ask: Return reported MMP13 IC50; argument: TIMP-3 mutein F57N (other) CTCSPSHPQDAFCNSDIVIRAKVVGKKLVKEGPNGTLVYTIKQMKMYRGFTKMPHVQYIHTEASESLCGLKLEVNKYQYLLTGRVYDGKMYTGLCNFVERWDQLTLSQRKGLNYRYHLGCNCKIKSCYYLPCFVTSKNECLWTDMLSNFGYPGYQSKHYACIRQKGGYCSWYRGWAPPDKSIINATDP
Reply: 0.5
